B1: tRNA (parent)
chain: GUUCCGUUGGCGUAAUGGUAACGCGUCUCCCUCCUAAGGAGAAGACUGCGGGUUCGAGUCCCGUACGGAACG

Variants of: B1
assay-details: yeast fitness, log relative to wild type (ln ratio); higher = fitter; tRNA-Arg(CCU), competitive growth, 37 C, 1 M NaCl
Overview of recorded yeast fitness (ln) for various variants
Please state the value as a number alone, without comment.

Examples with answers:
Field request: yeast fitness (ln) | item: C66A C71U
-0.0269

Field request: yeast fitness (ln) | item: G1A U2G G6U A43C C66A A69G A70G C71U
-0.412

Field request: yeast fitness (ln) | item: G1A G6U C27U A43C A70G C71U
-0.426

Field request: yeast fitness (ln) | item: U2G G6U C46U C66A C71U
-0.0521

Field request: yeast fitness (ln) | item: G1A U2G G6A C27U A43C C66U A69G A70U
-0.387

Continuing:
Field request: yeast fitness (ln) | item: C66U A70G C71U
-0.0554

Field request: yeast fitness (ln) | item: G1A U2G A43C C66A A69G A70G C71U
-0.329

Field request: yeast fitness (ln) | item: U2C G6U C66A C71U
-0.294
